# Tested on: HCT-116
# assay-comment: Cytotoxicity against human HCT-116 cells assessed as inhibition of cell growth
# Type: functional, cell-based
readout-name: pIC50
Please express pIC50 as -log10 of the molar concentration.

Query block: Recorded pIC50 for C=C1C(=O)[C@@]23[C@@H]4OC(C)(C)O[C@@H]2C[C@@H]2C(C)(C)CC[C@H](O)[C@@]2(C)[C@@H]3CC[C@@H]14 , please?
Result block: 5.12

Query block: // same read-out, input: C=C1C(=O)[C@@]23[C@@H]4OC(C)(C)O[C@@H]2C[C@@H]2C(C)(C)CC[C@H](OC(=O)CC)[C@@]2(C)[C@@H]3CC[C@@H]14
Result block: 5.16

Query block: Repeat for the following compound: C=C1C(=O)[C@@]23[C@H](O)C[C@@H]4C(C)(C)CC[C@H](OC(=O)CCC)[C@@]4(C)[C@@H]2CC[C@@H]1[C@H]3O
Result block: 5.38

Query block: Follow-up item: COc1cc([C@@H]2c3cc4c(cc3[C@@H](O[C@@H]3O[C@@H]5CO[C@@H](C)O[C@H]5[C@H](O)[C@H]3O)[C@H]3COC(=O)[C@H]23)OCO4)cc(OC)c1O [ETOPOSIDE]
Result block: 4.64

Query block: And what about the compound C=C1C(=O)[C@@]23[C@H](O)C[C@@H]4C(C)(C)CCC(=O)[C@@]4(C)[C@@H]2CC[C@@H]1[C@H]3O ?
Result block: 4.96
